Data origin: patent US20180037644A1

Biological target: T1, human IL-33 (mm2) (human, UniProt O95760 112-270)
T1 chain: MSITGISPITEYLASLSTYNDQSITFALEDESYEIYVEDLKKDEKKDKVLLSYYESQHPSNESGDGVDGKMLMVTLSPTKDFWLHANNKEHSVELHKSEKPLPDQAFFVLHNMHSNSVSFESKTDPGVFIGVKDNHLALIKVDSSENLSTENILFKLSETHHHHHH
Assay: cell-based or functional assay
# IC50, HEK293 ST2 NFkB per entry
valueType: IC50, HEK293 ST2 NFkB

binder	valueType	reportedMeasurement
7E8 chimera (antibody, human IgG1, kappa, V domains shown) VH: EVQLVETGGGLVQPGRSLKLSCKTSGFTFSSYWMYWIRQAPGKGLEWVSSITPNGGNTYYPDSVKGRFTISRDNAENTIYLQMSSLRSEDTATYFCAKGHYYYTSYSLGYWGQGSLVTVSS VL: EIQMTQSPSVLSASVGDRVTLSCKASQNINKHLDWYQQKLGEAPKLLIYFTNNLQTGIPSRFSGSGSGTDCTLTINSLQPGDVATYFCFQYNNGWTFGGGTKLELDR	IC50, HEK293 ST2 NFkB	49 pM
30B11 chimera/hu J (antibody, human IgG1, kappa, V domains shown, also called 30B11 hu Jseg) VH: QVKLLQSGAALVKPGASVKMSCATSGFSFTDYWVSWVKQSHGKGLEWIGEIYPNSGADNFNENFKGKATLTVDKSTSTAYMELSRLTSEDSAIYYCTRGPYYYSTQIIFAYWGQGTLVTVSS VL: NIVMTQSPKSMSISVGDRVTMNCKASQNVGNNLAWYQQKPGQSPKLLIYYASNRYTGVPDRFTGGGYGTDFTLTINSVQAEDAAFYYCQRIYNSPPTFGGGTKVEIKR	IC50, HEK293 ST2 NFkB	28 pM
rat 9B3 (9B3 hybridoma) (antibody, V domains shown) VH: EVQLVETGGGLVQPGRSLKLSCVASGFTFSNYWMYWIRQAPGMGLEWVSSINNDGGNTYYLDSVKGRFTISRNNAENTVYLQMNSLRSEDTATYYCAKGHYSYSSYSFSYWGQGTLVTVSS VL: DIQMTQSPSVLSASVGDRVTLSCKASHNINKHLDWCQQKVGEAPKLLIYFTNNLQTGIPSRFSGSGSGTDYTLTISSLQPEDVATYFCFQYNSGWTFGGGTKLELK	IC50, HEK293 ST2 NFkB	76 pM
